Source of measurements: patent US8309558B2

Tested on: HCV replicon cells
assayRemarks: HCV replicon FRET / luciferase assay (96-well plates)
Assay type: cell-based
runParameters: Hepatitis C virus, Table 1a; HCV replicon; read-out: EC50
Excerpt: FRET Assay Preparation. To perform the HCV FRET screening assay, 96-well cell culture plates were used. The FRET peptide (Anaspec, Inc.) (Taliani et al., Anal. Biochem. 1996, 240, 60-67) contains a fluorescence donor, EDANS, near one end of the peptide and an acceptor, DABCYL, near the other end. […] Assays. […] The plate was then placed into the Cytoflour 4000 instrument which had been set to 340 excite/490 emission, automatic mode for 20 cycles and the plate read in a kinetic mode. […]
The entries below come with measured EC50 values attached.

Form field: reported EC50 of `CNC(=O)c1c(-c2ccc(F)cc2)oc2ccc(-c3ccc(CNS(C)(=O)=O)cc3)cc12`
> 1230 nM

Form field: reported EC50 of `CCC(C)(C)NC(=O)c1cccc(-c2ccc3oc(-c4ccc(F)cc4)c(C(=O)NC)c3c2)c1`
< 250 nM

Form field: reported EC50 of `CNC(=O)c1c(-c2ccc(F)cc2)oc2ccc(-c3cccc(C(=O)NCCC#N)c3)cc12`
250 to 1000 nM
